Origin of measurements: the RNAGym collection of RNA variant scans (doi:10.1093/molbev/msab373)

Measured reverse-splicing fitness accompanies every entry in the list below.
B1: Azoarcus group I ribozyme (parent)
chain: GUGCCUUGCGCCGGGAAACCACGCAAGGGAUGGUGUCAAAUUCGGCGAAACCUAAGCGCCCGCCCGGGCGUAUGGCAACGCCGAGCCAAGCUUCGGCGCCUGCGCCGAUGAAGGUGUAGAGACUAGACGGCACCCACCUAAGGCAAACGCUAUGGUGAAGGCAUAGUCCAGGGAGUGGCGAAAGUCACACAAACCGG

- Variants of: B1
- assay-notes: reverse-splicing fitness (ratio to wild type); higher = more active; in vitro selection; Mg2+ level not given
quantity: reverse-splicing fitness

                             mutation_string                  quantity  reported_result
 0                    C82U A111C A120U U176G  reverse-splicing fitness          0.00301
 1              C82A A111C A145U C169G U176C  reverse-splicing fitness           0.0193
 2        C82A A111G A120C A145G C169A U176G  reverse-splicing fitness          0.00562
 3  C82G A111U A120G A145G C150G C169A U176C  reverse-splicing fitness           0.0126
 4  C82A A111C A120G A145C C150A C169G U176A  reverse-splicing fitness           0.0253
 5                   A145U C150A C169U U176A  reverse-splicing fitness            0.031
 6              C82G A120C C150G C169A U176C  reverse-splicing fitness           0.0106
 7              C82A A111U A120C C150G U176C  reverse-splicing fitness           0.0098
 8        C82A A120U A145C C150A C169A U176C  reverse-splicing fitness          0.00238
 9  C82U A111C A120U A145U C150G C169G U176G  reverse-splicing fitness           0.0024
10              C82U A120U A145G C150G U176C  reverse-splicing fitness           0.0113
